test system: Candida albicans; experiment: Minimum inhibitory concentration against Candida albicans (ATCC 10231) in the presence of serum; format: functional
testReadout: MIC (µg/mL)

moleculeSmiles	testedTarget	MIC / µg/mL
CCCCC/C=C/C=C/[C@@H](O)C/C=C/C=C/C(=O)O[C@@H]1[C@@H](O)[C@H](c2c(O)cc(O)cc2CO)O[C@H](CO)[C@H]1O[C@@H]1O[C@H](COC(=O)c2cccc(-c3ccc(OC)cc3)c2)[C@H](O)[C@H](O)[C@H]1O[C@@H]1O[C@H](CO)[C@H](O)[C@H](O)[C@H]1O	Candida albicans	1.56
CCCCC/C=C/C=C/[C@@H](O)C/C=C/C=C/C(=O)O[C@@H]1[C@@H](O)[C@H](c2c(O)cc(O)cc2CO)O[C@H](CO)[C@H]1O[C@@H]1O[C@H](COC(=O)c2ccccc2)[C@H](O)[C@H](O)[C@H]1O[C@@H]1O[C@H](CO)[C@H](O)[C@H](O)[C@H]1O	Candida albicans	12.5
CCCCC/C=C/C=C/[C@@H](O)C/C=C/C=C/C(=O)O[C@@H]1[C@@H](O)[C@H](c2c(O)cc(O)cc2CO)O[C@H](CO)[C@H]1O[C@@H]1O[C@H](COC(=O)/C=C/C=C/CCCCCC)[C@H](O)[C@H](O)[C@H]1O[C@@H]1O[C@H](CO)[C@H](O)[C@H](O)[C@H]1O	Candida albicans	1.56

P. CCCCC/C=C/C=C/[C@@H](O)C/C=C/C=C/C(=O)O[C@@H]1[C@@H](O)[C@H](c2c(O)cc(O)cc2CO)O[C@H](CO)[C@H]1O[C@@H]1O[C@H](COC(=O)CCCCCCCCC)[C@H](O)[C@H](O)[C@H]1O[C@@H]1O[C@H](CO)[C@H](O)[C@H](O)[C@H]1O
Q. CCCCC/C=C/C=C/[C@@H](O)C/C=C/C=C/C(=O)O[C@@H]1[C@@H](O)[C@H](c2c(O)cc(O)cc2CO)O[C@H](CO)[C@H]1O[C@@H]1O[C@H](COC(=O)c2cccc3ccccc23)[C@H](O)[C@H](O)[C@H]1O[C@@H]1O[C@H](CO)[C@H](O)[C@H](O)[C@H]1O
Request: Which gives the smaller MIC number: P or Q ? To answer, give the label that identifies your chosen option.
Result: Q

###

test system: Candida albicans; assay: Minimum inhibitory concentration against Candida albicans (579a) in the presence of serum; type: functional
testReadout: MIC (µg/mL)

Reference set (3 entries):
moleculeSmiles	resultUnit	MIC
CCCCC/C=C/C=C/[C@@H](O)C/C=C/C=C/C(=O)O[C@@H]1[C@@H](O)[C@H](c2c(O)cc(O)cc2CO)O[C@H](CO)[C@H]1O[C@@H]1O[C@H](COC(=O)c2ccc(-c3ccc(OC(C)C)cc3)cc2)[C@H](O)[C@H](O)[C@H]1O[C@@H]1O[C@H](CO)[C@H](O)[C@H](O)[C@H]1O	µg/mL	0.78
CCCCC/C=C/C=C/[C@@H](O)C/C=C/C=C/C(=O)O[C@@H]1[C@@H](O)[C@H](c2c(O)cc(O)cc2CO)O[C@H](CO)[C@H]1O[C@@H]1O[C@H](COC(=O)c2ccc(-c3ccc(OCCCCCCCC)cc3)cc2)[C@H](O)[C@H](O)[C@H]1O[C@@H]1O[C@H](CO)[C@H](O)[C@H](O)[C@H]1O	µg/mL	25
CCCCC/C=C/C=C/[C@@H](O)C/C=C/C=C/C(=O)O[C@@H]1[C@@H](O)[C@H](c2c(O)cc(O)cc2CO)O[C@H](CO)[C@H]1O[C@@H]1O[C@H](COC(=O)c2ccc(-c3ccc(O)cc3)cc2)[C@H](O)[C@H](O)[C@H]1O[C@@H]1O[C@H](CO)[C@H](O)[C@H](O)[C@H]1O	µg/mL	6.25

1. CCCCC/C=C/C=C/[C@@H](O)C/C=C/C=C/C(=O)O[C@@H]1[C@@H](O)[C@H](c2c(O)cc(O)cc2CO)O[C@H](CO)[C@H]1O[C@@H]1O[C@H](COC(=O)c2cccc3ccccc23)[C@H](O)[C@H](O)[C@H]1O[C@@H]1O[C@H](CO)[C@H](O)[C@H](O)[C@H]1O
2. CCCCC/C=C/C=C/[C@@H](O)C/C=C/C=C/C(=O)O[C@@H]1[C@@H](O)[C@H](c2c(O)cc(O)cc2CO)O[C@H](CO)[C@H]1O[C@@H]1O[C@H](COC(=O)CCCCCCCCC)[C@H](O)[C@H](O)[C@H]1O[C@@H]1O[C@H](CO)[C@H](O)[C@H](O)[C@H]1O
Request: MIC comparison. Which is larger, 1 or 2 ? To answer, give the label that identifies your chosen option.
Result: 2
(2: 12.5 µg/mL, 1: 3.12 µg/mL)
